Origin of the recorded values: PubChem BioAssay (EPA / NIEHS)

# Read-out: Interleukin 17A (IL17A), IL17A (gene 3605)
# protocol_description: BSK_BT_xIL17A: BioMAP Diversity Plus: BT Assay for Interleukin 17A (IL17A) Biomarker Activity (AID 2284229)
# assay_conditions: primary human B cells with PBMC
The source made the active and inactive calls. How the source made its calls: active means hit-call score of the fitted dose curve at least 0.9, where 1 is the maximum; inactive means score below 0.9.
Please state which outcome applies, choosing from active, inactive

Would you please look over these solved cases?
molecule=CCc1c(C)cc(N)c(CC)c1N classification=inactive
molecule="CC1COc2ccccc2N1C(=O)C(Cl)Cl (stereo not given)" classification=inactive
molecule="CCCCCCCCCCCCCCCCCC(=O)OCC(CC)CCCC (stereo not given)" classification=inactive
molecule=C=C[Si](OCC)(OCC)OCC classification=inactive
molecule=CC(C)Oc1ccccc1O classification=inactive

Status in this test for CC(=O)/C=C/C1=C(C)CCCC1(C)C ?
inactive
